GI50 values by entry
System: CAKI-1
Assay: NCI tumour cell line growth inhibition, 48 h
Active and inactive are the calls of the source. Cut-off read from the data, not from the text of the source: active = GI50 up to about 1.1 µM and inactive = higher.
RECORDED_ENDPOINT: GI50

# COMPOUND, TARGET_OR_SYSTEM, RECORDED_ENDPOINT, REPORTED_RESULT
rows = [
    ("O=C1OC(c2cccc(C(F)(F)F)c2)c2ccc3ccccc3c21 (stereo not given)", "CAKI-1", "GI50", "> 10 µM (inactive)"),
    ("Cc1cc(Br)cc(C)c1NC(=O)C(=O)Nn1c(S)nc2ccccc2c1=O", "CAKI-1", "GI50", "> 100 µM (inactive)"),
    ("O=C(NC/C(Cl)=C/Cl)Nc1cccc2c1CCCC2", "CAKI-1", "GI50", "86.9 µM (inactive)"),
    ("CCO/C=C1\\N=C(c2ccccc2Br)OC1=O", "CAKI-1", "GI50", "> 100 µM (inactive)"),
    ("Cc1cc(NC2=CC(=O)C(=O)c3ccccc32)no1", "CAKI-1", "GI50", "5.71 µM (inactive)"),
    ("COc1ccc2c(c1)c1c3n2CCNN=C3CCC1", "CAKI-1", "GI50", "24.8 µM (inactive)"),
    ("CCOC(=O)c1ccc(/N=C2/C(=S)N(c3ccc(C(=O)OCC)cc3)C(=N)N2/N=C/c2ccccc2)cc1", "CAKI-1", "GI50", "13.9 µM (inactive)"),
    ("C=C[C@@]1(C)CC(=O)[C@]2(O)[C@@]3(C)[C@@H](OC(C)=O)CCC(C)(C)[C@@H]3[C@H](OC(C)=O)[C@H](OC(C)=O)[C@@]2(C)O1", "CAKI-1", "GI50", "> 100 µM (inactive)"),
    ("CC(=O)[C@]12OC(=O)C3=C1[C@H](CC[C@@H]3C)[C@@H](C)C[C@H]2C=C(C)C", "CAKI-1", "GI50", "6.49 µM (inactive)"),
    ("CCOC(=O)C1C(=O)CC(C)(O)C(C(=O)OCC)C1c1ccc(OC)cc1 (stereo not given)", "CAKI-1", "GI50", "> 100 µM (inactive)"),
]

====

Test system: SF-268
Test: NCI tumour cell line growth inhibition, 48 h
Activity calls are given as the source filed them. No stated cut-off is given here; in the data, active = GI50 up to about 1.1 µM and inactive = higher.
# GI50 listing for each entry below

# COMPOUND, GI50
data = [
    ("CCOC(=O)C1C(=O)CC(C)(O)C(C(=O)OCC)C1c1ccc(OC)cc1 (stereo unspecified)", "> 100 µM (inactive)"),
    ("Brc1ccc2[nH]cc([C@H]3CN[C@@H](c4c[nH]c5ccc(Br)cc45)CN3)c2c1", "2.65 µM (inactive)"),
    ("COc1ccc(NC(=O)CCc2cc(C(C)(C)C)[nH]n2)cc1", "> 100 µM (inactive)"),
    ("O=C1OCC(O)=C1C(c1ccc(Cl)cc1)c1cc2c(cc1O)OCO2 (stereo unspecified)", "> 100 µM (inactive)"),
    ("CC(=O)NC(C)(C)C1CCC(C)CC1 (stereo unspecified)", "> 100 µM (inactive)"),
    ("C/C(=N/NC(=O)c1ccccc1Nc1ccccc1C(=O)N/N=C(\\C)c1ccc(C)cc1)c1ccc(C)cc1", "> 100 µM (inactive)"),
    ("Cc1c(O)c(OC2OC(CO)C(O)C(O)C2O)cc2c1CC[C@@H]1C2(C)C(=O)C[C@]2(C)[C@@H]([C@@](C)(O)C(O)/C=C/C(C)(C)O)[C@H](O)C[C@@]12C (stereo partly specified)", "> 100 µM (inactive)"),
    ("O=S1(=O)OCCOS(=O)(=O)C1(Cl)Cl", "43.5 µM (inactive)"),
    ("C=CCn1c(=O)c(C)cn(/C(=C/C(=O)OCC)C(=O)OCC)c1=O", "18.9 µM (inactive)"),
    ("CCOC(=O)C1(C(=O)OCC)CCCN1C(=O)[C@H](CNC(=O)OC(C)(C)C)NC(=O)OCc1ccccc1", "> 100 µM (inactive)"),
    ("O=P1(C(O)c2ccccc2)N(Cc2ccccc2)[C@@H]2CCCC[C@H]2N1Cc1ccccc1 (stereo partly specified)", "25.6 µM (inactive)"),
    ("O=S(=O)(Nc1nccs1)c1ccc([As](=O)(O)O)cc1", "> 100 µM (inactive)"),
    ("C[C@]12CC[C@H]3[C@@H](CCC4=C[C@@H](N5CCCC5)CC[C@@]43C)[C@@H]1C/C(=C\\c1ccncc1)[C@@H]2O", "16.5 µM (inactive)"),
    ("O=C(NC1C(O)C(O)C(CO)OC1n1cc(F)c(=O)[nH]c1=O)OCc1ccccc1 (stereo unspecified)", "> 100 µM (inactive)"),
    ("Oc1cc(-c2ccccc2)nc2c(S)cccc12", "> 100 µM (inactive)"),
    ("Cc1cc(-c2nc3ccc(F)cc3s2)ccc1NC(=O)[C@H](C)N", "10 µM (inactive)"),
    ("O=CN1CCN(C(=O)c2ccc(Cl)cc2)C1=S", "19.2 µM (inactive)"),
    ("C(#Cc1ccccc1)SC1=C(c2ccccc2)S/C(=C(\\SC#Cc2ccccc2)c2ccccc2)S1", "> 100 µM (inactive)"),
    ("CCOc1ccc(NC2=NC(=O)C(CC(=O)Nc3ccccc3[N+](=O)[O-])S2)cc1 (stereo unspecified)", "> 100 µM (inactive)"),
    ("NC(=O)NNC(=O)c1nc[nH]c1[N+](=O)[O-]", "> 100 µM (inactive)"),
    ("OCCOCn1nc(-c2ccccc2)nc1-c1cnccn1", "> 100 µM (inactive)"),
]
